Assay: Inhibition of alpha-glucosidase compound administered simultaneously with para-nitrophenyl substrate
reported property: IC50 (µM)
Write down the numeric answer in µM and omit the unit.

Input: Form field: reported IC50 of O=c1oc2cc(O)ccc2c(O)c1-c1c(O)ccc(O)c1-c1c(O)c2ccc(O)cc2oc1=O
Output: 88.4

----------
Assay: Inhibition of beta-glucosidase using salicin substrate
Settings: read-out: IC50
// values below are reported pIC50
Quick note: pIC50 values are minus log10 of concentrations in mol/L.

[[record]]
compound = "Cc1c(O)ccc2c(O)cc(=O)oc12"
observed_value = 4.06


Input: Form field: reported pIC50 of Cc1cc(=O)oc2cc(O)cc(O)c12 [5,7-DIHYDROXY-4-METHYLCOUMARIN]
Output: 4.34
